Biological target: T1, recombinant human MASP1 (amino acids 297-699, C-terminal His Tag) (human, UniProt P48740 297-699)
T1 sequence: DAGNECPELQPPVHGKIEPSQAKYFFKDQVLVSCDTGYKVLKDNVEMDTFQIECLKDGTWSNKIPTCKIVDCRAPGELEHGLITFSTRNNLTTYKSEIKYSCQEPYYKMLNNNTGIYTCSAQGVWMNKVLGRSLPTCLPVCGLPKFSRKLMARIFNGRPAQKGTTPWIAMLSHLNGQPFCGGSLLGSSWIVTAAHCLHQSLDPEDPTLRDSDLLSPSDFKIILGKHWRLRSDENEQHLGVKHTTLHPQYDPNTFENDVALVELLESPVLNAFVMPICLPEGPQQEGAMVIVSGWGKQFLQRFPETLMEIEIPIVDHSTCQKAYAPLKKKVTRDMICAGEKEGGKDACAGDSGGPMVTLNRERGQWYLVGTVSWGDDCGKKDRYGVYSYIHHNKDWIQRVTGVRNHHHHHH
Assay: cell-based or functional assay
Bridges are numbered along the chain shown (N, C = ends). [ ]: non-standard residue; d: D form. Oic = O=C(O)[C@@H]1C[C@@H]2CCCC[C@@H]2N1; tBuAla = CC(C)(C)C[C@H](N)C(=O)O; Pen = CC(C)(S)[C@H](N)C(=O)O; Ahx = NCCCCCC(=O)O; Sar = CNCC(=O)O

BINDER: cyclo([Ahx]AICSRS[tBuAla]PPI[Pen]IP) (disulfide 4-12; also: TFA salt) [Example 53: (Ahx)**-AIC+SRS-((tBu)A)-PPI-(Pen)+-IP**]
human MASP1 IC50, nM: 6.75

BINDER: cyclo(AGGICSRSLP[Oic]I[Pen]IP[dD]) (disulfide 5-13; also: TFA salt) [Example 98: A**GGIC+SRSLP-(Oic)-I-(Pen)+-IPd**]
human MASP1 IC50, nM: 19

BINDER: cyclo(AGAICSRS[tBuAla]PPI[Pen]IPD) (disulfide 5-13; also: TFA salt) [Example 26: A**GAIC+SRS-((tBu)A)-PPI-(Pen)+-IPD**]
human MASP1 IC50, nM: 12

BINDER: cyclo([Ahx][Sar]ICSRS[tBuAla]PPI[Pen]IP) (disulfide 4-12; also: TFA salt) [Example 54: (Ahx)**-((N-Me)G)-IC+SRS-((tBu)A)-PPI-(Pen)+-IP**]
human MASP1 IC50, nM: 8.5

BINDER: [Ahx]GICSRSLP[Oic]I[Pen]IPD-NH2 (disulfide 4-12; lactam N-15; also: TFA salt) [Example 49: (Ahx)**-GIC+SRSLP-(Oic)-I-(Pen)+-IPD++-NH2]
human MASP1 IC50, nM: 19
